# melting point values compiled below

Examples with their reported melting point follow.
Fill blank: measured melting point of the compound CC(=O)OCC(=O)Nc1ccc(C(CC2CCCC2)C(=O)Nc2nccs2)cc1 (centres unmarked) is ____.
90 to 95 °C

Fill blank: measured melting point of the compound COC(=O)c1ccc(NC(=O)C(CC2CCCC2)c2ccc(NC(=O)c3cccnc3)cc2)nc1 (centres unmarked) is ____.
110 to 111 °C

Fill blank: measured melting point of the compound O=C(Nc1ccc(C(CC2CCCC2)C(=O)Nc2ccccn2)cc1)c1cccnc1 (centres unmarked) is ____.
160 to 163 °C

Others:
Fill blank: measured melting point of the compound O=C(Nc1nccs1)C(CC1CCCC1)c1ccc(NS(=O)(=O)c2ccc([N+](=O)[O-])cc2)cc1 (centres unmarked) is ____.
120 to 125 °C

Fill blank: measured melting point of the compound O=C(Cc1cccs1)Nc1ccc(C(CC2CCCC2)C(=O)Nc2nccs2)cc1 (centres unmarked) is ____.
220 to 221 °C

Fill blank: measured melting point of the compound O=C(Nc1ccc(C(CC2CCCC2)C(=O)Nc2nccs2)cc1)c1ccc([N+](=O)[O-])cc1 (centres unmarked) is ____.
236 to 238 °C

Fill blank: measured melting point of the compound COC(=O)C(=O)Nc1ccc(C(CC2CCCC2)C(=O)Nc2nccs2)cc1 (centres unmarked) is ____.
95 to 98 °C

Fill blank: measured melting point of the compound CCOC(=O)c1csc(NC(=O)C(CC2CCCC2)c2ccc(NC(=O)c3cccnc3)cc2)n1 (centres unmarked) is ____.
222 to 223 °C

====

# melting point values compiled below

Fill blank: measured melting point of the compound O=C(Nc1ccc(C(CC2CCCC2)C(=O)Nc2nccs2)cc1)c1ccncc1 (stereo not shown) is ____.
225 to 230 °C

Fill blank: measured melting point of the compound O=C(Nc1ccc(C(CC2CCCC2)C(=O)Nc2nccs2)cc1)c1cccnc1 (stereo not shown) is ____.
240 to 242 °C

Fill blank: measured melting point of the compound O=C(Nc1nccs1)C(CC1CCCC1)c1ccc(NS(=O)(=O)C(F)(F)F)cc1 (stereo not shown) is ____.
70 to 74 °C

Fill blank: measured melting point of the compound O=C(Nc1ccc(C(CC2CCCC2)C(=O)Nc2nccs2)cc1)c1ccccc1 (stereo not shown) is ____.
285 to 290 °C

====

# melting point values compiled below

Fill blank: measured melting point of the molecule CN(C)S(=O)(=O)Nc1ccc(C(CC2CCCC2)C(=O)Nc2nccs2)cc1 (stereo not drawn) [Example 8] is ____.
110 to 112 °C

Fill blank: measured melting point of the molecule CCOC(=O)Cc1csc(NC(=O)C(CC2CCCC2)c2ccc(NC(=O)c3cccnc3)cc2)n1 (stereo not drawn) [Example 11] is ____.
195 to 200 °C

Fill blank: measured melting point of the molecule CS(=O)(=O)Nc1ccc(C(CC2CCCC2)C(=O)Nc2nccs2)cc1 (stereo not drawn) [Example 12] is ____.
85 to 90 °C

Values from patent US6489485B2
